Endpoint Label: melting point

# Compound, Endpoint Label, Result
records = [
    ("CN1C(=O)C(N)=C(C(N)=S)C1=O", "melting point", "282 °C"),
    ("CCCc1nc2c(N)nc3cc(OCCc4ccc(F)cc4)ccc3c2s1", "melting point", "145 to 148 °C"),
    ("O=C1NN(c2nc3ccc(Cl)cc3s2)C(c2ccccc2)C1c1ccccc1 (stereo not given)", "melting point", "170 to 172 °C"),
    ("COc1cc(-c2csc(N)n2)c(OC)cc1C", "melting point", "191 to 192 °C"),
    ("CC(SC(=O)c1ccccc1)C(=O)NC(Cc1ccccc1)C(=O)O (stereo not given)", "melting point", "173 to 175 °C"),
    ("OC(COc1ccc(Cl)cc1)CSCc1ccc(Cl)cc1 (stereo not given)", "melting point", "107 to 108 °C"),
    ("CC(=O)N1CC(CCN2CC=C(c3c[nH]c4cc(Cl)ccc34)CC2)c2cc(F)ccc21 (stereo not given)", "melting point", "183 to 185 °C"),
    ("Cc1onc(C(=O)c2c(F)cccc2F)c1NC(=O)CBr", "melting point", "76 to 80 °C"),
    ("O=Cc1cn(Cc2ccc3cc(OCc4ccccc4)ccc3c2)cc1-c1ccccc1", "melting point", "140 to 141 °C"),
    ("OCc1sc(Cl)nc1-c1ccc(F)cc1", "melting point", "97 to 98.5 °C"),
    ("CC(=O)c1cccc(C(=O)N2CCN(C(=O)c3cc(C(F)(F)F)cc(C(F)(F)F)c3)[C@H](Cc3ccc(C)c(C)c3)C2)c1", "melting point", "156 to 157 °C"),
    ("COc1ccc(Cc2nc(C#N)c[nH]2)cc1", "melting point", "170 to 171 °C"),
    ("O=[N+]([O-])c1cn(-c2cncc(F)c2)nc1Cl", "melting point", "110 to 111 °C"),
    ("CC(C)[Si](C#Cc1c2ccccc2c2ccc3c(C#C[Si](C(C)C)(C(C)C)C(C)C)c4ccccc4c4ccc1c2c34)(C(C)C)C(C)C", "melting point", "318 to 321 °C"),
    ("CCOC(=O)c1cccc(-c2ccc3c(n2)C(Oc2ccc(Cl)cc2Cl)CC3)c1 (stereo not given)", "melting point", "129 to 130 °C"),
    ("CCCCCCCCCCCCCCCCCCCCCCOc1ccc(C(=O)O)cc1", "melting point", "99 to 102 °C"),
    ("O=C1c2ccccc2C(O)N1CCBr (racemic)", "melting point", "123 to 124 °C"),
    ("O=C(Nc1cccc2[nH]ccc12)c1cc(O)cc(Cl)c1", "melting point", "248 °C"),
    ("COC(=O)c1cc(=NS(=O)(=O)c2ccc(C)cc2)c2c(Cl)cc(Cl)cc2[nH]1", "melting point", "210 to 212 °C"),
    ("CCOc1nn(Cc2ccc(OCn3nnc4ccccc43)cc2)cc1CCC(=O)O", "melting point", "136 to 137 °C"),
]

###

The following molecules are listed with their measured melting point values.
Endpoint Label: melting point

# Molecule, Result
rows = [
    ("N#Cc1ncn(-c2cccc(Cl)c2F)c1I", "182 to 183 °C"),
    ("CC(=O)Nc1cc(I)c(-c2cc([N+](=O)[O-])c(NC(C)=O)cc2I)cc1[N+](=O)[O-]", "296 to 298 °C"),
    ("CCOC1=NS(=O)(=O)c2cc(NC=O)ccc21", "188 to 194 °C"),
    ("O=C(O)c1cn(C2CC2)c2cc(F)c(F)cc2c1=O", "288 to 290 °C"),
    ("CCN1CCCC(NC(=O)N2CCN(c3ccccc3)CC2)C1 (stereo not given)", "100 to 103 °C"),
    ("O=C(O)C1=Cc2cc(Cl)c(Oc3ccccn3)cc2OC1C(F)(F)F (stereo not given)", "234 to 235 °C"),
    ("N#CCCCC(=NO)c1ccc(Cl)c(Cl)c1", "122 to 123 °C"),
    ("COc1ccccc1-c1cccc(C(c2ccccc2)c2ccccc2)c1O", "131 °C"),
    ("CC(=O)OCC1OC(n2cc(C3=C(c4c[nH]c5ncccc45)C(=O)N(COCc4ccccc4)C3=O)c3cccnc32)C(OC(C)=O)C(OC(C)=O)C1OC(C)=O (stereo not given)", "127 to 129 °C"),
    ("Cc1cc(-c2nc(-c3cccs3)c[nH]2)ccc1O", "167 to 172 °C"),
    ("CCOC(c1ccccc1)(c1ccccc1)C(C)CNC (stereo not given)", "85 °C"),
    ("CCCc1nc(C)n2cnnc2c1Cc1ccc(-c2ccccc2-c2nnn[nH]2)cc1", "182 to 184 °C"),
    ("CCC(C)(C)N1C(=O)C(=O)N(c2ccc(C#N)cc2)C1=S", "173 to 174 °C"),
    ("CC(=O)N1CCN=C1Nc1c(Br)cccc1Br", "182 to 185 °C"),
    ("CCCCOC(=O)C=C(C)C=CC=C(C)C=Cc1c(C)c(C)c(OC)c(C)c1C", "230 to 233 °C"),
    ("CN(C(CCN1C(=O)c2ccccc2C1=O)C(=O)O)S(=O)(=O)c1ccc(Oc2ccc(Cl)cc2)cc1 (stereo not given)", "166 to 167 °C"),
    ("CCCCCCNC(=O)NC1CCCc2sccc21 (stereo not given)", "122 to 124 °C"),
    ("O=c1nc(-c2ccccc2)c2ccccc2n1CC(F)(F)F", "182 °C"),
    ("O=C(O)CN(CCN(CC(=O)O)C(Cc1ccccc1)C(=O)O)CCN(CC(=O)O)C(Cc1ccccc1)C(=O)O (stereo not given)", "111 to 115 °C"),
    ("O=C(CNc1c(C(=O)O)[nH]c2cc(Cl)ccc12)c1ccccc1O", "198 to 200 °C"),
]

###

# key: entry, value: melting point
Endpoint Label: melting point

# Query Smiles, Result
records = [
    ("Oc1c(Br)cc(-c2c3ccccc3c(Br)c3oc4ccccc4c23)c(O)c1Br", "226 to 228 °C"),
    ("CCOc1nc(C)nc(N2CCc3ccccc3CC2)c1C#N", "106 to 109 °C"),
    ("Cc1sc(CCc2ccc(CO)cc2)nc1-c1ccccc1", "62 to 63 °C"),
    ("COc1ccc(CCN2CCC(C(=O)O)(S(=O)(=O)c3ccc(OC)cc3)CC2)cc1", "205 °C"),
    ("Nc1nc(Cl)cc(NCCO)n1", "143 to 146 °C"),
]

###

Documented melting point across a set of compounds

# Compound, melting point
measured = [
    ("CC(C)(C)OC(=O)NCC(=O)Nn1cccc1C(=O)c1ccccc1F", "114 to 116 °C"),
    ("CS(=O)c1ccc(CSc2nnc(-c3ccc4[nH]ncc4c3)o2)cc1C(F)(F)F (centres undefined)", "170 to 171 °C"),
    ("CNCc1cccc2c1ccn2S(=O)(=O)c1ccccc1", "75 to 77 °C"),
    ("Cc1cc(C)n2nc(NS(=O)(=O)c3cc(Cl)ccc3Cl)nc2n1", "216 to 218 °C"),
    ("O=S1NC=Cc2ccccc21 (centres undefined)", "198 to 200 °C"),
    ("CC(C)[C@H](NC(=O)OCc1ccccn1)C(=O)N[C@@H](Cc1ccccc1)[C@@H](O)C[C@H](Cc1ccccc1)NC(=O)OCc1cccnc1", "169 to 171 °C"),
    ("COc1cc(-n2nc(C(F)(F)F)cc2-c2ccc(-c3ccco3)cc2)ccc1S(C)(=O)=O", "139 °C"),
    ("CCCCOC(=O)NC1CCN(c2c(F)cc3c(=O)c(C(=O)O)cn(C4CC4)c3c2F)C1 (centres undefined)", "228 to 230 °C"),
    ("O=C(O)CCCNC(=O)CC1=C(n2nc(-c3c(-c4ccccc4)nn4ccccc34)ccc2=O)CCCC1", "92.5 to 93 °C"),
]

###

# Molecule, melting point
measured = [
    ("Clc1ccc2c(c1)N=C(c1ccncc1)c1ccccc1O2", "122 °C"),
    ("CCCCC=Cc1ccc(Cc2c(C)[nH]c3ccc(C(=O)OC)cc23)c(Cl)c1", "141 to 146 °C"),
    ("OC(CCc1cccc(Br)c1)c1cnc2sc3c(n12)CCCCC3 (stereo not given)", "137 to 141 °C"),
    ("Cn1cncc1C(O)(c1ccc(Cl)cc1)c1ccc2c(c1)C(c1cccc(Cl)c1)=NCc1nnnn1-2 (stereo not given)", "240 °C"),
    ("COc1ccc2c(CC3=C(CC(=O)O)CCCC3=O)cccc2c1C(F)(F)F", "69 to 71 °C"),
    ("C=CS(=O)(=O)C(C)(C)S(=O)(=O)C=C", "121 to 122 °C"),
    ("Cc1oc(-c2ccccc2)nc1COc1ccc(Cn2cc(CCC(=O)O)c(O)n2)cc1", "197 to 198 °C"),
    ("O=C(NCc1ccc(Cl)c(Cl)c1)Nc1cccc2[nH]ccc12", "201 °C"),
    ("CCOC(=O)C(C#N)c1ncccc1[N+](=O)[O-] (stereo not given)", "133 to 134 °C"),
    ("Cc1oc(-c2ccccc2)nc1CCNCc1ccc(C[C@@H](C(=O)O)n2cccc2)cc1", "208 to 210 °C"),
    ("COc1cc2ccc(C3CO3)cc2cc1OC (stereo not given)", "115 to 117 °C"),
    ("COc1ccc2c(c1)NC(=O)C(CCCBr)O2 (stereo not given)", "102 to 103 °C"),
    ("CCOC(=O)c1ccc(-c2ccc(-c3ccccc3O)c(-c3ccc4c(c3)C(C)(C)CCC4(C)C)c2)cc1", "161 to 163 °C"),
    ("CN(C)c1cc2c(cc1C(F)(F)F)NC(=O)CC(c1cccc(-c3ccncc3)c1)=N2", "202 °C"),
    ("COc1ccc(NC(=O)c2ccc(C3(C#N)CCCC3)cc2)cc1", "163 to 168 °C"),
    ("O=c1[nH]c(CCl)nc2cc3c(cc12)CCC3", "270 to 272 °C"),
    ("O=C(O)C1CCCN(C(=O)c2cccc(C(=O)C3CCC4(CCNCC4)CC3)c2)C1 (stereo not given)", "146 to 148 °C"),
    ("CC(C)(C)c1ccc(C(=O)Nc2cn3nc(NC4CCCCC4)ccc3n2)cc1", "296 to 297 °C"),
    ("O=c1[nH]c2ccccc2n1-c1ncnc2nn(C3CCCC3)cc12", "236 to 240 °C"),
    ("Cc1ccc(C2c3c(C)c(Br)c(C)c(C4OCCO4)c3OC2(C)C)cc1 (stereo not given)", "169 to 172 °C"),
]
